Please respond with reported inhibition for every item in the list.
# Target: UniProt:P33535
# Sequence (P33535 whole entry): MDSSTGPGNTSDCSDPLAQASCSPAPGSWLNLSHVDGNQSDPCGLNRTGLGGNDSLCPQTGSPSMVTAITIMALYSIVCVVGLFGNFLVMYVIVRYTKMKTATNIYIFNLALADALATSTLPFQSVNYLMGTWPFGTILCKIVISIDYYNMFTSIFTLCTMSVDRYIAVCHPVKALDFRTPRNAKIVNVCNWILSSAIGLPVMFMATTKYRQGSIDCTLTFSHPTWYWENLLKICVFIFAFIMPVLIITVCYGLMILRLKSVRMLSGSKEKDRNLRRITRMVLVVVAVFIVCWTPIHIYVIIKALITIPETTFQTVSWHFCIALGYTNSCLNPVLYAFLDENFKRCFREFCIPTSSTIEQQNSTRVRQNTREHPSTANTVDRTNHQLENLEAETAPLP
# Assay: Inhibition of Wistar rat MOR expressed in CHO cell membrane assessed as inhibition relative to control
# Type: cell-based
# Set-up: concentration or dose not given beside the values
# Reported Conditions: filed as agonist, concentration not given here
Field format: number, assumed %, no unit text.

Problem: Entry COc1cccc(C2(O)CCN(C(=O)c3cc(F)c(F)cc3F)CC2CN(C)C)c1 (stereo not drawn) has what inhibition?
Result: 13

Problem: What measured inhibition goes with CN(C)CC1CN(C(=O)CCc2ccc(C(F)(F)F)cc2)CCC1(O)c1cccc(O)c1 (stereo not drawn) ?
Result: 5.5

Problem: Quick check: inhibition of COc1cccc(C2(O)CCN(C(=O)Cc3cccc(OC(F)(F)F)c3)CC2CN(C)C)c1 (stereo not drawn) ?
Result: 21.5

Problem: I am curious: what inhibition value has been reported for COc1cccc(C2(O)CCN(C(=O)Cc3cccc(C(F)(F)F)c3)CC2CN(C)C)c1 (stereo not drawn) ?
Result: 37.8

Problem: # input molecule: COc1cccc(C2(O)CCN(C(=O)Cc3cc(F)c(F)cc3F)CC2CN(C)C)c1 (stereo not drawn) ; wanted: its inhibition
Result: 39

Problem: Bench note: what inhibition did COc1cccc(C2(O)CCN(C(=O)Cc3ccsc3)CC2CN(C)C)c1 (stereo not drawn) show?
Result: 40.6

Problem: What does the record list as inhibition for COc1cccc(C2(O)CCN(C(=O)Cc3cccc(C#N)c3)CC2CN(C)C)c1 (stereo not drawn) ?
Result: 28.9

Problem: # query: inhibition of entry COc1cccc(C2(O)CCN(C(=O)Cc3ccccc3Cl)CC2CN(C)C)c1 (stereo not drawn)
Result: 28.3
